Recorded values, source ChEMBL document CHEMBL5352452.

- Tested on: BGC-823
- PROTOCOL_TEXT: Antiproliferative activity against human BGC-823 cells assessed as inhibition of cell growth measured after 48 hrs by MTT assay
- Type: functional, cell-based
- CONDITION_INFO: BGC-823, 48 h
MEASURED_METRIC: pIC50
# pIC50 is unitless: minus log10 of the molar concentration; print number only

Worked cases, pIC50 given:
structure=CN1CCN(Cc2cc3c4ccccc4n(Cc4ccc(F)cc4)c3c(CN3CCN(C)CC3)n2)CC1 measured_metric=pIC50 observed_result=4.31
structure=CN1CCN(Cc2cc3c4ccccc4n(Cc4cccc(Cl)c4)c3c(CN3CCN(C)CC3)n2)CC1 measured_metric=pIC50 observed_result=4.43
structure=CN1CCN(Cc2cc3c4ccccc4n(CCCc4ccccc4)c3c(CN3CCN(C)CC3)n2)CC1 measured_metric=pIC50 observed_result=4.61
structure=CCCCn1c2ccccc2c2cc(CN3CCN(C)CC3)nc(CN3CCN(C)CC3)c21 measured_metric=pIC50 observed_result=4.01

Exercise: Dear colleague, I am looking for the recorded pIC50 of the following molecule: `CN1CCN(Cc2cc3c4ccccc4n(Cc4ccccc4)c3c(CN3CCN(C)CC3)n2)CC1`
Key: 4.23

###

- Tested on: HCT-116
- PROTOCOL_TEXT: Antiproliferative activity against human HCT-116 cells expressing ATG7-FLAG assessed as inhibition of cell growth measured after 24 hrs by CCK-8 assay
- Format: functional, cell-based
- CONDITION_INFO: HCT-116, 24 h
MEASURED_METRIC: IC50 (µM)
API: value field is a number in µM; no unit string.

Exercise: Which IC50 is reported with HCT-116 for this entry: `CN1CCN(Cc2cc3c4ccccc4n(CCCc4ccccc4)c3c(CN3CCN(C)CC3)n2)CC1` ?
Key: 5.09
